The reported measurements were obtained from patent US20220298235A1.

# assayed target: T1, Human IL12 (His Tag) (human, UniProt P29459 23-219; P29460 23-328)
# T1 construct: Bought His-tagged heterodimer
# T1 sequence (looked up) 1: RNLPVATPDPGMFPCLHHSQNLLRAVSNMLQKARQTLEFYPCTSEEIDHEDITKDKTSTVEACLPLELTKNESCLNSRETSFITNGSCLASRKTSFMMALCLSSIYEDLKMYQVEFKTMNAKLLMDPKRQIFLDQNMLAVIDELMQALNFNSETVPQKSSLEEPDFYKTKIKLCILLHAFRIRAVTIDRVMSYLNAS
# T1 sequence (looked up) 2: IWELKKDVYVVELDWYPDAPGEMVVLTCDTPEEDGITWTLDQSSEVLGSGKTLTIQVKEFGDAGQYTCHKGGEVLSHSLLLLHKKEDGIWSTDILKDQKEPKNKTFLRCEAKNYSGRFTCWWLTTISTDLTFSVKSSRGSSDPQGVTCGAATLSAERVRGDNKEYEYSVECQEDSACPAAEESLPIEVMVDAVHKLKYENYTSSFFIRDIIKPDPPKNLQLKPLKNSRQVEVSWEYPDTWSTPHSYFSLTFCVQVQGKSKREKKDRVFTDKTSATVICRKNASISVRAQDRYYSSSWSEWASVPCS
# protocol text: FACS competition, IL-12-His 20 nM on 293T-IL-12Rβ1&IL-23R cells; antibody 1.11 µg/mL
attribute measured: MFI (MFI)
Use MFI as the unit, but write only the number.

// known answers, use as guide
| binder | MFI (MFI) |
| --- | --- |
| H5L12 (antibody, human IgG1, kappa, V domains shown, human IgG1 / kappa constant regions; also called humanized antibody H5L12) VH: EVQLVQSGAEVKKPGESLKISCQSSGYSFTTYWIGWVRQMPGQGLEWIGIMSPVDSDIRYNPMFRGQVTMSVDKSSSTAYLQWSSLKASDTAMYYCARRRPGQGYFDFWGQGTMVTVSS VL: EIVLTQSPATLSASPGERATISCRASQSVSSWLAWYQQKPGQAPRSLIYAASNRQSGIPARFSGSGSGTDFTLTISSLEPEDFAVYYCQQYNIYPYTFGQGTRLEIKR | 38.5 |
| H5L10 (antibody, human IgG1, kappa, V domains shown, human IgG1 / kappa constant regions; also called humanized antibody H5L10) VH: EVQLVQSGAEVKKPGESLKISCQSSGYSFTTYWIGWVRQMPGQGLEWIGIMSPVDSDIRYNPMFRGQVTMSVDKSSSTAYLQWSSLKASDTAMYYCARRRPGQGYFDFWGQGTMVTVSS VL: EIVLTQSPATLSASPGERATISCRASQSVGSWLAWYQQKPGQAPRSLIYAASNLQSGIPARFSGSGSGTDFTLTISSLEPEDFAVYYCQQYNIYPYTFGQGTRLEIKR | 44.6 |

Okay, next one:
The binder identified as H5L11 (antibody, human IgG1, kappa, V domains shown, human IgG1 / kappa constant regions; also called humanized antibody H5L11) VH: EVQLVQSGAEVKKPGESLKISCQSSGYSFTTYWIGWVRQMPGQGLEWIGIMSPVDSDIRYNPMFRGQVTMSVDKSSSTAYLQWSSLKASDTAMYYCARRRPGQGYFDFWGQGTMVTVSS VL: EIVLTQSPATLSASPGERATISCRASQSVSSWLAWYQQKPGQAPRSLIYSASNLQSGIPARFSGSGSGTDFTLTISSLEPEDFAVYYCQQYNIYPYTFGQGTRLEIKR registered its MFI at 54.3
